- testTarget: human PPARα (Homo sapiens)
- Construct: borders undisclosed
- protocolDetails: Cell-based Luciferase Assay, human PPARα agonist activity (Indigo Biosciences hPPARα IB00111)
- runParameters: read-out: % PPAR-alpha AGONISM, % at 50 μm
Returns one of label 1 or label 0; label 1 when activation at 50 µM is >= 50%.

Reference set, count: 4
- molSmiles: "N#Cc1ccc(-c2ccc(CNc3cc(F)cc(C(=O)O)c3)cc2)cc1"
  classLabel: "label 1"
- molSmiles: "O=C(O)c1cccc(NCc2cn(-c3ccc(F)cc3)nn2)c1"
  classLabel: "label 1"
- molSmiles: "COc1ccc(-c2ccc(CNc3cc(F)cc(C(=O)O)c3)cc2)cc1"
  classLabel: "label 1"
- molSmiles: "COc1ccc(-c2ccc(CNc3cccc(C(=O)O)c3)cc2)cc1"
  classLabel: "label 1"

Input: Is the recorded value of activation at 50 µM equal to or greater than 50% for this compound? O=C(O)c1cc(F)cc(NCc2csc(-c3ccc(C(F)(F)F)cc3)n2)c1
Output: label 0

Input: Is the recorded value of activation at 50 µM equal to or greater than 50% for this compound? O=C(O)c1cc(F)cc(NCc2ccc(-c3ccc(C(F)(F)F)cc3)cn2)c1
Output: label 0

Input: Is the recorded value of activation at 50 µM equal to or greater than 50% for this compound? O=C(O)c1cc(F)cc(NCc2cc(Cl)c(-c3ccc(C(F)(F)F)cc3)c(Cl)c2)c1
Output: label 0

###

Could you please report measured % STING INHIBITION, % at 12.5 μm for the items listed next?
- testTarget: STING (Homo sapiens, UniProt Q86WV6, G230A/H232R/R293Q/R71H)
- Construct: THP-1 Lucia ISG cells (InvivoGen, thpl-isg); host or cells: THP-1 Lucia ISG cells
- Sequence (Q86WV6 whole entry R71H/G230A/H232R/R293Q): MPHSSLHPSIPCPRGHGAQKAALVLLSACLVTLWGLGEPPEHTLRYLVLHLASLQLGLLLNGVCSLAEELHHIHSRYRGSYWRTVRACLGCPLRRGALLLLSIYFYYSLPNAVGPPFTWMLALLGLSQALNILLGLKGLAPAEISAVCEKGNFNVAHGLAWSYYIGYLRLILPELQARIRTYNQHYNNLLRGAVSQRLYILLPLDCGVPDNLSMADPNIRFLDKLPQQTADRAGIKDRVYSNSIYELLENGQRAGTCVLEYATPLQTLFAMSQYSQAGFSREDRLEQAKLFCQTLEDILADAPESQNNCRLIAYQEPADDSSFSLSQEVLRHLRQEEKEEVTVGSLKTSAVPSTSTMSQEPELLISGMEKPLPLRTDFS
- protocolDetails: IRF-Lucia Reporter STING Inhibition Assay (THP-1 Lucia ISG cells)
- Type: cell-based
- runParameters: at 12.5 μm; 1 μM 2,3-cGAMP; 20 hours
Answers are plain numbers, in %.

The examples below pair each entry with its known result.
- molSmiles: "O=C(O)c1cc(NCc2ccc(-c3ccc(F)c([N+](=O)[O-])c3)cc2)ccc1O"
  valueObserved: 0
- molSmiles: "O=C(O)c1cc(NCc2ccc(-c3ccc(O)cc3)cc2)ccc1O"
  valueObserved: 0
- molSmiles: "O=C(O)c1cc(O)cc(NCc2ccc(-c3ccc(F)cc3)cc2)c1"
  valueObserved: 9
- molSmiles: "CC(C)(C)c1ccc(-c2ccc(CNc3ccc(O)c(C(=O)O)c3)cc2)cc1"
  valueObserved: 0
- molSmiles: "O=C(O)c1cc(NCc2ccc(-c3ccc(C(F)(F)F)cc3)cc2)ccc1O"
  valueObserved: 28
- molSmiles: "COc1ccc(NCc2ccc(-c3ccc(F)cc3)cc2)cc1C(=O)O"
  valueObserved: 9

Give % STING INHIBITION, % at 12.5 μm for all compounds that follow.
1. CS(=O)(=O)c1ccc(-c2ccc(CNc3ccc(O)c(C(=O)O)c3)cc2)cc1
2. COc1cc(F)ccc1-c1ccc(CNc2ccc(O)c(C(=O)O)c2)cc1
3. COc1ccc(NCc2ccc(-c3ccc(F)cc3)cc2)cc1C#N
4. Cc1cc(F)ccc1-c1ccc(CNc2ccc(O)c(C(=O)O)c2)cc1
5. N#Cc1cc(NCc2ccc(-c3ccc(F)cc3)cc2)ccc1O
6. O=C(O)c1cc(NCc2ccc(-c3ccccc3)cc2)ccc1O
7. Cc1cc(-c2ccc(CNc3ccc(O)c(C(=O)O)c3)cc2)ccc1F

Output:
0
0
0
25
40
0
0

###

- testTarget: human PPARα (Homo sapiens)
- Construct: borders undisclosed
- Sequence (Q07869 1-468): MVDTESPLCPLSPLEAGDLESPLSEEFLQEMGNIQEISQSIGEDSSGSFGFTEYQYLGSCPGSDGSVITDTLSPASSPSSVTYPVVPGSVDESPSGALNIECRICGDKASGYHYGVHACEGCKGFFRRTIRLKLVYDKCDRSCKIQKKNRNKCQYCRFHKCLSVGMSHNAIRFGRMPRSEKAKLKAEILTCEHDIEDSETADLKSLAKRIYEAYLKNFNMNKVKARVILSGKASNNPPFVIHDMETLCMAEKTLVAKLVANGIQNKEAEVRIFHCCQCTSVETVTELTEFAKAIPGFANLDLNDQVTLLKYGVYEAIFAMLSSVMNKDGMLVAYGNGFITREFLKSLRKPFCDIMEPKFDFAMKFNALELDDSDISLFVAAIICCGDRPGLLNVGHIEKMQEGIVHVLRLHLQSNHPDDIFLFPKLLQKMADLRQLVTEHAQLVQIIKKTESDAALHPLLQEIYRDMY
- protocolDetails: Cell-based Luciferase Assay, human PPARα agonist activity (Indigo Biosciences hPPARα IB00111)
- runParameters: read-out: % PPAR-alpha AGONISM, % at 5 μm
Could you please report measured activation at 5 µM for the items listed next?

The examples below pair each entry with its known result.
- molecule: "O=C(O)c1cc(F)cc(NCc2cnc(-c3ccc(C(F)(F)F)cc3)s2)c1 [Example 24]"
  activation at 5 µM: "83.3%"
- molecule: "O=C(O)c1cccc(NCc2ccc(-c3ccc(F)cc3)cc2)c1 [Example 1]"
  activation at 5 µM: "125%"
- molecule: "O=C(O)c1cc(F)cc(NCc2ccc(-c3ccc(C(F)(F)F)cc3)cn2)c1 [Example 22]"
  activation at 5 µM: "62.2%"

Give activation at 5 µM for all molecules that follow.
1. O=C(O)c1cc(F)cc(NCc2ccc(-c3ccccc3)cc2)c1 [Example 8]
2. N#Cc1ccc(-c2ccc(CNc3cc(F)cc(C(=O)O)c3)cc2)cc1 [Example 14]
3. COc1ccc(-c2ccc(CNc3cccc(C(=O)O)c3)cc2)cc1 [Example 3]
4. O=C(O)c1cccc(NCc2cn(-c3ccc(C(F)(F)F)cc3)nn2)c1 [Example 27]

Output:
1. 50.3%
2. 58.7%
3. 112%
4. 94.3%

Input: # lookup: activation at 5 µM of O=C(O)c1cc(F)cc(NCc2csc(-c3ccc(F)cc3)n2)c1 [Example 26]
Output: 14.2%

This collection of values is drawn from patent US20260297016A1.
